meta.source: patent US11040963B2

target: HA H5 A/Vietnam/1203/04 (Influenza A virus (A/Vietnam/1203/2004(H5N1))); test: biochemical; settings: Competition binding (AlphaLISA), pIC50 H5 A/Vietnam/1203/04
Note to self: IC50 under 4 µM means label 1, ties and anything higher get label 0.

Compound: Cc1nnc(C(c2ccccc2)N2CCN(C(=O)c3cccc(-c4nc5cc(N(C)C)ccc5o4)c3)CC2)o1 (stereo not shown) [Example 35]
Assigned class: label 1

Compound: Cc1nnc(C(c2ccccc2)N2CCN(C(=O)c3cccc(-c4nc5cc(NS(C)(=O)=O)ccc5o4)c3)CC2)o1 (stereo not shown) [Example 73]
Assigned class: label 1

Compound: Cc1nnc(C(c2ccccc2)N2CCN(C(=O)c3cc(-c4nc5cc(C(F)(F)F)ccc5o4)ccn3)CC2)o1 (stereo not shown) [Example 40]
Assigned class: label 1

Compound: Cc1nnc([C@@H](c2ccccc2)N2CCN(C(=O)[C@H]3CCCN(c4nc5cc(C(F)(F)F)ccc5o4)C3)CC2)o1 [Example 96]
Assigned class: label 0

Compound: COC(=O)C(c1ccccc1)N1CCN(C(=O)C2CCCN(c3nc4ccc(OC)cc4s3)C2)CC1 (stereo not shown) [Example 115]
Assigned class: label 0

Compound: O=C(c1cccc(-c2nc3cc(C(F)(F)F)ccc3o2)c1)N1CCN(C(c2ccccc2)c2nnc(C3CC3)o2)CC1 (stereo not shown) [Example 127]
Assigned class: label 0

====

molecular target: HA H5 A/Vietnam/1203/04 (Influenza A virus (A/Vietnam/1203/2004(H5N1)), UniProt Q5EP31); assay: biochemical; settings: Competition binding (AlphaLISA), pIC50 H5 A/Vietnam/1203/04
pIC50: −log10 of the molar value.
Could you label it Satisfied if measured pIC50 is 6 or higher, and Not satisfied otherwise?

Compound: COC(=O)[C@H](c1ccccc1)N1CCN(C(=O)c2cccc(-c3nc4cc(C(F)(F)F)ccc4o3)c2)[C@@H](C)C1
Target or system: HA H5 A/Vietnam/1203/04 (Influenza A virus (A/Vietnam/1203/2004(H5N1)), UniProt Q5EP31)
Assigned class: Not satisfied
//
Compound: COc1ccc2nc(-c3cccc(C(=O)N4CCN(C(C(N)=O)c5ccccc5)CC4)c3)sc2c1 (centres unmarked)
Target or system: HA H5 A/Vietnam/1203/04 (Influenza A virus (A/Vietnam/1203/2004(H5N1)), UniProt Q5EP31)
Assigned class: Not satisfied
//
Compound: O=C(c1cccc(-c2nc3cc(C(F)(F)F)ccc3o2)c1)N1CCN(C(c2ccccc2)c2nnc(C3(O)CCC3)o2)CC1 (centres unmarked)
Target or system: HA H5 A/Vietnam/1203/04 (Influenza A virus (A/Vietnam/1203/2004(H5N1)), UniProt Q5EP31)
Assigned class: Not satisfied
//
Compound: COC(=O)C(c1ccccc1)N1CCN(C(=O)c2cccc(-c3nc4cc(OC)ccc4o3)c2)CC1 (centres unmarked)
Target or system: HA H5 A/Vietnam/1203/04 (Influenza A virus (A/Vietnam/1203/2004(H5N1)), UniProt Q5EP31)
Assigned class: Satisfied
//
Compound: COC(=O)[C@@H](c1ccccc1)N1CCN(C(=O)c2cccc(-c3nc4cc(C(F)(F)F)ccc4o3)c2)[C@H](C)C1
Target or system: HA H5 A/Vietnam/1203/04 (Influenza A virus (A/Vietnam/1203/2004(H5N1)), UniProt Q5EP31)
Assigned class: Not satisfied
//
Compound: COc1ccc2nc(-c3cccc(C(=O)N4CCN(C(c5ccccc5)c5noc(C)n5)CC4)c3)sc2c1 (centres unmarked)
Target or system: HA H5 A/Vietnam/1203/04 (Influenza A virus (A/Vietnam/1203/2004(H5N1)), UniProt Q5EP31)
Assigned class: Not satisfied
//
Compound: Cc1nnc([C@@H](c2ccccc2)N2CCN(C(=O)c3cccc(-c4ccc5ccccc5n4)c3)CC2)o1
Target or system: HA H5 A/Vietnam/1203/04 (Influenza A virus (A/Vietnam/1203/2004(H5N1)), UniProt Q5EP31)
Assigned class: Not satisfied
//
Compound: CC(=O)Nc1ccc2oc(-c3ccnc(C(=O)N4CCN([C@H](c5ccccc5)c5n[nH]c(C)n5)CC4)c3)nc2c1
Target or system: HA H5 A/Vietnam/1203/04 (Influenza A virus (A/Vietnam/1203/2004(H5N1)), UniProt Q5EP31)
Assigned class: Satisfied
//
Compound: COC(=O)[C@@H](c1ccccc1)N1CCN(C(=O)c2cccc(-c3nc4cc(C(F)(F)F)ccc4o3)c2)[C@H](CC(N)=O)C1
Target or system: HA H5 A/Vietnam/1203/04 (Influenza A virus (A/Vietnam/1203/2004(H5N1)), UniProt Q5EP31)
Assigned class: Not satisfied
//
Compound: Cc1nnc(C(c2ccccc2)N2CCN(C(=O)c3cc(-c4nc5ccccc5s4)ccc3F)CC2)o1 (centres unmarked)
Target or system: HA H5 A/Vietnam/1203/04 (Influenza A virus (A/Vietnam/1203/2004(H5N1)), UniProt Q5EP31)
Assigned class: Not satisfied
//
Compound: COC(=O)C(C)(c1ccccc1)N1CCN(C(=O)c2cccc(-c3nc4ccc(OC)cc4s3)c2)CC1 (centres unmarked)
Target or system: HA H5 A/Vietnam/1203/04 (Influenza A virus (A/Vietnam/1203/2004(H5N1)), UniProt Q5EP31)
Assigned class: Satisfied
//
Compound: Cc1coc(C(c2ccccc2)N2CCN(C(=O)c3cc(-c4nc5cc(OC(F)(F)F)ccc5o4)ccn3)CC2)n1 (centres unmarked)
Target or system: HA H5 A/Vietnam/1203/04 (Influenza A virus (A/Vietnam/1203/2004(H5N1)), UniProt Q5EP31)
Assigned class: Satisfied
//
Compound: Cc1nnc(C(c2ccccc2)N2CCN(C(=O)c3cccc(-c4nc5cc(Cl)ccc5o4)c3)CC2)o1 (centres unmarked)
Target or system: HA H5 A/Vietnam/1203/04 (Influenza A virus (A/Vietnam/1203/2004(H5N1)), UniProt Q5EP31)
Assigned class: Not satisfied
//
Compound: COC(=O)C(c1ccccc1)N1CCN(C(=O)c2cncc(-c3nc4ccc(OC)cc4s3)c2)CC1 (centres unmarked)
Target or system: HA H5 A/Vietnam/1203/04 (Influenza A virus (A/Vietnam/1203/2004(H5N1)), UniProt Q5EP31)
Assigned class: Satisfied
//
Compound: COC(=O)C(c1ccccc1)N1CCN(C(=O)c2cccc(-c3nc4cc(NC(C)=O)ccc4o3)c2)CC1 (centres unmarked)
Target or system: HA H5 A/Vietnam/1203/04 (Influenza A virus (A/Vietnam/1203/2004(H5N1)), UniProt Q5EP31)
Assigned class: Satisfied
//
Compound: COC(=O)[C@@H](c1ccccc1)N1CCN(C(=O)c2cccc(-c3nc4ccccc4s3)c2)CC1
Target or system: HA H5 A/Vietnam/1203/04 (Influenza A virus (A/Vietnam/1203/2004(H5N1)), UniProt Q5EP31)
Assigned class: Satisfied
//
Compound: COC(=O)C(c1ccccc1)N1CCN(C(=O)c2cccc(-c3nc4cc(OC5CC5)ccc4o3)c2)CC1 (centres unmarked)
Target or system: HA H5 A/Vietnam/1203/04 (Influenza A virus (A/Vietnam/1203/2004(H5N1)), UniProt Q5EP31)
Assigned class: Satisfied
//
Compound: Cc1nnc([C@@H](c2ccccc2)N2CCN(C(=O)c3cccc(-c4nc5cccc(C)c5o4)c3)CC2)o1
Target or system: HA H5 A/Vietnam/1203/04 (Influenza A virus (A/Vietnam/1203/2004(H5N1)), UniProt Q5EP31)
Assigned class: Not satisfied
//
Compound: CCOC(=O)[C@@H](c1ccccc1)N1CCN(C(=O)c2cccc(-c3ccc(OC)cc3)c2)CC1
Target or system: HA H5 A/Vietnam/1203/04 (Influenza A virus (A/Vietnam/1203/2004(H5N1)), UniProt Q5EP31)
Assigned class: Satisfied
//
Compound: COC(=O)C(c1ccccc1)N1CCN(C(=O)c2cccc(-c3nc4cc(Cl)ccc4o3)c2)CC1 (centres unmarked)
Target or system: HA H5 A/Vietnam/1203/04 (Influenza A virus (A/Vietnam/1203/2004(H5N1)), UniProt Q5EP31)
Assigned class: Not satisfied
//
Compound: NCc1nnc(C(c2ccccc2)N2CCN(C(=O)c3cccc(-c4nc5cc(C(F)(F)F)ccc5o4)c3)CC2)o1 (centres unmarked)
Target or system: HA H5 A/Vietnam/1203/04 (Influenza A virus (A/Vietnam/1203/2004(H5N1)), UniProt Q5EP31)
Assigned class: Not satisfied
//
Compound: Cc1nc([C@@H](c2ccccc2)N2CCN(C(=O)c3cc(-c4nc5cc(OC(F)(F)F)ccc5o4)ccn3)CC2)n[nH]1
Target or system: HA H5 A/Vietnam/1203/04 (Influenza A virus (A/Vietnam/1203/2004(H5N1)), UniProt Q5EP31)
Assigned class: Satisfied
//
Compound: Cc1nnc(C(c2ccccc2)N2CCN(C(=O)c3cccc(-c4nc5cccnc5o4)c3)CC2)o1 (centres unmarked)
Target or system: HA H5 A/Vietnam/1203/04 (Influenza A virus (A/Vietnam/1203/2004(H5N1)), UniProt Q5EP31)
Assigned class: Not satisfied
//
Compound: O=C(c1cccc(-c2nc3cc(C(F)(F)F)ccc3o2)c1)N1CCN(C(c2ccccc2)c2nnc(C3(O)CNC3)o2)CC1 (centres unmarked)
Target or system: HA H5 A/Vietnam/1203/04 (Influenza A virus (A/Vietnam/1203/2004(H5N1)), UniProt Q5EP31)
Assigned class: Not satisfied
